Experiment: Solubility of the compound at pH 2.5 by HPLC analysis
Format: physicochemical
Details: buffer
experimental.endpoint: solubility

* CN(C(=O)Cn1c(=O)oc2ccc(-c3ccc(C(F)(F)F)cc3)cc21)c1cccnc1 | < 1 µg/mL
* CN(C(=O)Cn1c(=O)oc2ccc(-c3ccc(C(F)(F)F)cc3)cc21)c1ccccc1 | < 1 µg/mL
* CN(C(=O)Cn1c(=O)oc2ccc(-c3ccncc3)cc21)c1ccc(C(F)(F)F)cc1 | > 1000 µg/mL
* CN(C(=O)Cn1c(=O)oc2ccc(-c3ccc(OC(F)(F)F)cc3)cc21)c1ccccc1 | < 1 µg/mL

====

Test: Metabolic stability in rat liver S9 fraction assessed as compound remaining at 1 uM after 30 mins in presence of NADPH
Format: ADME, subcellular
Settings: read-out: Stability
Listing of entries alongside the reported remaining at 0.5 h, 1 µM.
experimental.endpoint: remaining at 0.5 h, 1 µM (%)

• CN(C(=O)Cn1c(=O)oc2ccc(-c3cccnc3)cc21)c1ccc(C(F)(F)F)cc1 = 38
• COc1ccc(N(C)C(=O)Cn2c(=O)oc3ccc(-c4ccncc4)cc32)cc1 = 47
• CN(C(=O)Cn1c(=O)oc2ccc(-c3ccc(C(F)(F)F)cc3)cc21)c1cccnc1 = 24

====

Organism: Rattus norvegicus
Test: Displacement of [3H]flumazenil from Sprague-Dawley rat cerebral cortex CBR at 10 uM after 1 hr by liquid scintillation counting analysis
Format: tissue-based
Listing of entries alongside the reported inhibition.
experimental.endpoint: inhibition

- CCN(C(=O)Cn1c(=O)oc2ccc(-c3cccnc3)cc21)c1ccccc1: 21%
- CN(C(=O)Cn1c(=O)oc2ccc(-c3ccncc3)cc21)c1ccc(C(F)(F)F)cc1: 0%
- COc1ccc(N(C)C(=O)Cn2c(=O)oc3ccc(-c4cccnc4)cc32)cc1: 0%

Numbers sourced from ChEMBL document CHEMBL2440065.
